Data credit: ChEMBL document CHEMBL1138974

target: Nociceptin receptor (Homo sapiens, UniProt P41146); assay: Displacement of [3H]NOP from human NOP receptors expressed in HEK293 cells; type: cell-based; details: hek293
Sequence (P41146 whole entry): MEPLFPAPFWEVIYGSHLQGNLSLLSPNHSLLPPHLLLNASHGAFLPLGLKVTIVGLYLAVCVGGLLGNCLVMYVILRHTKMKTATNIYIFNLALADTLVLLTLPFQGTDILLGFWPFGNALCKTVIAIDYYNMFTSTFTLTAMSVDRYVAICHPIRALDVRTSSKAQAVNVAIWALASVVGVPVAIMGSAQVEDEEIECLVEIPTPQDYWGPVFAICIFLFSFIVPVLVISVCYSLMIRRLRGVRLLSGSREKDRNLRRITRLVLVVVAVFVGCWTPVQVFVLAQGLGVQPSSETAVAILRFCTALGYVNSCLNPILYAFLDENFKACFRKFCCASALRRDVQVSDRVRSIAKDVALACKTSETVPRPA
result-type: IC50

Reported IC50 of O=C1NCC(c2ccccc2)C12CCN(C1CCCCC1(O)c1ccc(F)cc1)CC2 (single isomer, unassigned; diastereomer 1) : > 10 µM

Reported IC50 of O=C1NCC(c2ccccc2)C12CCN(C1CCCCC1(O)c1ccc(F)cc1)CC2 (single isomer, unassigned; diastereomer 2) : > 10 µM

---

experiment: Clearance in mouse; format: ADME, organism-based; conditions: in vivo
result-type: clearance (mL/min/kg)
Give the value in mL/min/kg but do not write mL/min/kg after it.

Reported clearance of O=C1NC[C@@H](c2ccccc2)C12CCN(C1CCCCC1c1ccccc1)CC2 (stereo in doubt; 27) : 99

---

Record form. Attribute: microsomal CLint. Fill in for each entry.
assay: Intrinsic clearance in mouse microsome; type: ADME; conditions: microsomes
Give the value in µL/min/mg but do not write µL/min/mg after it.

Reported microsomal CLint of O=C1NCC(c2ccc(F)cc2)C12CCN(C1CCCCC1(O)c1ccccc1F)CC2 (single isomer, unassigned; diastereomer 4) : 39

Reported microsomal CLint of O=C1NC[C@@H](c2ccccc2)C12CCN(C1CCCCC1c1ccccc1)CC2 (stereo in doubt; 27) : 36

Reported microsomal CLint of O=C1NCC(c2ccc(F)cc2)C12CCN(C1CCCCC1(O)c1cccc(F)c1)CC2 (single isomer, unassigned; diastereomer 2) : 16

Reported microsomal CLint of O=C1NCC(c2ccccc2)C12CCN(C1CCCCC1(O)c1ccc(F)cc1)CC2 (single isomer, unassigned; diastereomer 1) : 13

---

assay: Clearance in rat; assay type: ADME, organism-based; settings: in vivo
result-type: clearance (mL/min/kg)
Give the value in mL/min/kg but do not write mL/min/kg after it.

Reported clearance of O=C1NC[C@@H](c2ccccc2)C12CCN(C1CCCCC1c1ccccc1)CC2 (stereo in doubt; 27) : 63

Reported clearance of O=C1NCN(c2ccccc2)C12CCN(C1CCCCC1c1ccccc1)CC2 (configuration not stated) : 120

---

Record form. Attribute: IC50. Fill in for each entry.
molecular target: Nociceptin receptor (Homo sapiens); assay: Displacement of [3H]NOP from human NOP receptors expressed in HEK293 cells; assay type: cell-based

Reported IC50 of O=C1NC[C@@H](c2ccccc2)C12CCN(C1CCCCC1c1ccccc1)CC2 (stereo in doubt; 3) : > 10 µM

Reported IC50 of O=C1NCC(c2ccccc2)C12CCN(C1CCCCC1(O)c1ccc(F)cc1)CC2 (single isomer, unassigned; diastereomer 3) : > 10 µM

---

biological target: Sodium- and chloride-dependent glycine transporter 2 (Homo sapiens, UniProt Q9Y345); assay: Inhibition of [3H]glycine uptake at human GlyT2 by radiometric assay
Sequence (Q9Y345 whole entry): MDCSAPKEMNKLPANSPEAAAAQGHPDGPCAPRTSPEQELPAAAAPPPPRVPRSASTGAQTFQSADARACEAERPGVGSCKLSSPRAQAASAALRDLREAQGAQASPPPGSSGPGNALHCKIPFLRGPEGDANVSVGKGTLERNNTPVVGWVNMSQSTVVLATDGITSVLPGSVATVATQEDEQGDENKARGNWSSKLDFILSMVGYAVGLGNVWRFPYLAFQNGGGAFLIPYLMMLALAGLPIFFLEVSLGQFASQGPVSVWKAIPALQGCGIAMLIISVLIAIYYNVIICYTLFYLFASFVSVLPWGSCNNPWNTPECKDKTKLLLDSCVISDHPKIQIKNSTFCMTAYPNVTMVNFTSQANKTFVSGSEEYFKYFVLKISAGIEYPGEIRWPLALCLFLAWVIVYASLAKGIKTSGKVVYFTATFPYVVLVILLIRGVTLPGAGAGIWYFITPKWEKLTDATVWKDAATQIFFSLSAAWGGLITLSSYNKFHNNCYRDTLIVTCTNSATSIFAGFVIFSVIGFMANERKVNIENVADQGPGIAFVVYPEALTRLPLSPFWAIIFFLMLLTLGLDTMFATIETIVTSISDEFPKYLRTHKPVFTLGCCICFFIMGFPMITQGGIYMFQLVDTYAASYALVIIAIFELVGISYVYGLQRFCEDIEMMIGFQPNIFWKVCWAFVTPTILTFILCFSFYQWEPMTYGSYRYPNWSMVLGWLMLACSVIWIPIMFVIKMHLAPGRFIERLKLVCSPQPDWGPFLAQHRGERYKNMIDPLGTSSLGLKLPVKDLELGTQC
Record form. Attribute: EC50. Fill in for each entry.
Give the value in µM but do not write µM after it.

Reported EC50 of O=C1NCN(c2ccccc2)C12CCN(C1CCCCC1(O)c1ccccc1)CC2 (centres undefined) : 72

Reported EC50 of O=C1NC[C@@H](c2ccccc2)C12CCN(C1CCCCC1c1ccccc1)CC2 (stereo in doubt; 3) : 25

---

test: Oral bioavailability in rat; type: ADME, organism-based; details: in vivo
result-type: bioavailability (%)
Give the value in % but do not write % after it.

Reported bioavailability of O=C1NCN(c2ccccc2)C12CCN(C1CCCCC1c1ccccc1)CC2 (stereo unspecified) : 8

---

assay: Dissociation constant, pKa of the compound; assay type: physicochemical
result-type: pKa
Answer as a number with no unit attached.

Reported pKa of O=C1NCC(c2ccc(F)cc2)C12CCN(C1CCCCC1(O)c1ccccc1)CC2 (stereo not drawn) : 6.89

Reported pKa of O=C1NC[C@@H](c2ccccc2)C12CCN(C1CCCCC1c1ccccc1)CC2 (stereo in doubt; 27) : 8.85

Reported pKa of O=C1NCC(c2ccccc2)C12CCN(C1CCCCC1(O)c1ccc(F)cc1)CC2 (single isomer, unassigned; diastereomer 1) : 8.54

---

biological target: UniProt P48067; assay: Inhibition of [3H]glycine uptake at human GlyT1 by radiometric assay
Record form. Attribute: EC50. Fill in for each entry.
Give the value in nM but do not write nM after it.

Reported EC50 of Cc1ccccc1C1(O)CCCCC1N1CCC2(CC1)C(=O)NCC2c1ccc(F)cc1 (single isomer, unassigned; diastereomer 3) : 17700

Reported EC50 of O=C1NCC(c2ccc(F)cc2)C12CCN(C1CCCCC1(O)c1ccccc1F)CC2 (stereo in doubt) : 1770

Reported EC50 of O=C1NCC(c2ccc(F)cc2)C12CCN(C1CCCCC1(O)c1ccccc1F)CC2 (single isomer, unassigned; diastereomer 1) : 596

Reported EC50 of O=C1NCC(c2ccccc2)C12CCN(C1CCCCC1(O)c1cccc(F)c1)CC2 (single isomer, unassigned; diastereomer 3) : 127

Reported EC50 of COc1ccc(C2(O)CCCCC2N2CCC3(CC2)C(=O)NCC3c2ccc(F)cc2)cc1 (single isomer, unassigned; diastereomer 1) : 3300

Reported EC50 of O=C1NCC(c2ccc(F)cc2)C12CCN(C1CCCCC1(O)c1cccc(Cl)c1)CC2 (single isomer, unassigned; diastereomer 1) : 6250

Reported EC50 of O=C1NCC(c2ccc(F)cc2)C12CCN(C1CCCCC1(O)c1ccccc1OC(F)(F)F)CC2 (stereo not drawn) : 1390

Reported EC50 of Cc1ccccc1C1(O)CCCCC1N1CCC2(CC1)C(=O)NCC2c1ccc(F)cc1 (single isomer, unassigned; diastereomer 4) : 69

Reported EC50 of O=C1NCC(c2ccc(F)cc2)C12CCN(C1CCCCC1(O)c1ccc(C(F)(F)F)cc1)CC2 (stereo not drawn) : 1310

Reported EC50 of N#Cc1ccc(C2(O)CCCCC2N2CCC3(CC2)C(=O)NCC3c2ccc(F)cc2)cc1 (mixture of isomers) : 1950

Reported EC50 of O=C1NCC(c2ccc(F)cc2)C12CCN(C1CCCCC1(O)c1cccc(Cl)c1)CC2 (single isomer, unassigned; diastereomer 2) : 2340

Reported EC50 of O=C1NCC(c2ccc(F)cc2)C12CCN(C1CCCCC1(O)c1cccc(F)c1)CC2 (single isomer, unassigned; diastereomer 2) : 77

---

test: Oral bioavailability in mouse; format: ADME, organism-based; settings: in vivo
result-type: bioavailability (%)
Give the value in % but do not write % after it.

Reported bioavailability of O=C1NC[C@@H](c2ccccc2)C12CCN(C1CCCCC1c1ccccc1)CC2 (stereo in doubt; 27) : 27

---

test: Intrinsic clearance in human microsome; type: ADME; conditions: microsomes
result-type: microsomal CLint (µL/min/mg)
Give the value in µL/min/mg but do not write µL/min/mg after it.

Reported microsomal CLint of O=C1NCC(c2ccccc2)C12CCN(C1CCCCC1(O)c1ccc(F)cc1)CC2 (single isomer, unassigned; diastereomer 1) : 44

Reported microsomal CLint of O=C1NC[C@@H](c2ccccc2)C12CCN(C1CCCCC1c1ccccc1)CC2 (stereo in doubt; 27) : 23

Reported microsomal CLint of O=C1NCN(c2ccccc2)C12CCN(C1CCCCC1c1ccccc1)CC2 (stereo unspecified) : 68

Reported microsomal CLint of O=C1NCN(c2ccccc2)C12CCN(C1CCCCC1(O)c1ccc(F)cc1)CC2 (stereo unspecified) : 78

Reported microsomal CLint of O=C1NCC(c2ccc(F)cc2)C12CCN(C1CCCCC1(O)c1cccc(F)c1)CC2 (single isomer, unassigned; diastereomer 2) : 11

Reported microsomal CLint of O=C1NCC(c2ccc(F)cc2)C12CCN(C1CCCCC1(O)c1ccccc1F)CC2 (single isomer, unassigned; diastereomer 4) : 28

---

assay: Intrinsic clearance in rat microsome; format: ADME; conditions: microsomes
Record form. Attribute: microsomal CLint. Fill in for each entry.
Give the value in µL/min/mg but do not write µL/min/mg after it.

Reported microsomal CLint of O=C1NCN(c2ccccc2)C12CCN(C1CCCCC1c1ccccc1)CC2 (configuration not stated) : 240

Reported microsomal CLint of O=C1NCN(c2ccccc2)C12CCN(C1CCCCC1(O)c1ccc(F)cc1)CC2 (configuration not stated) : 499

---

assay: Volume of distribution in rat; assay type: ADME, organism-based; details: in vivo, read-out: Vss
result-type: Vd (L/kg)
Give the value in L/kg but do not write L/kg after it.

Reported Vd of O=C1NCN(c2ccccc2)C12CCN(C1CCCCC1c1ccccc1)CC2 (configuration not stated) : 7.3

Reported Vd of O=C1NC[C@@H](c2ccccc2)C12CCN(C1CCCCC1c1ccccc1)CC2 (stereo in doubt; 27) : 4.3

---

molecular target: Sodium- and chloride-dependent glycine transporter 1 (Homo sapiens, UniProt P48067); assay: Inhibition of [3H]glycine uptake at human GlyT1 by radiometric assay
Sequence (P48067 whole entry): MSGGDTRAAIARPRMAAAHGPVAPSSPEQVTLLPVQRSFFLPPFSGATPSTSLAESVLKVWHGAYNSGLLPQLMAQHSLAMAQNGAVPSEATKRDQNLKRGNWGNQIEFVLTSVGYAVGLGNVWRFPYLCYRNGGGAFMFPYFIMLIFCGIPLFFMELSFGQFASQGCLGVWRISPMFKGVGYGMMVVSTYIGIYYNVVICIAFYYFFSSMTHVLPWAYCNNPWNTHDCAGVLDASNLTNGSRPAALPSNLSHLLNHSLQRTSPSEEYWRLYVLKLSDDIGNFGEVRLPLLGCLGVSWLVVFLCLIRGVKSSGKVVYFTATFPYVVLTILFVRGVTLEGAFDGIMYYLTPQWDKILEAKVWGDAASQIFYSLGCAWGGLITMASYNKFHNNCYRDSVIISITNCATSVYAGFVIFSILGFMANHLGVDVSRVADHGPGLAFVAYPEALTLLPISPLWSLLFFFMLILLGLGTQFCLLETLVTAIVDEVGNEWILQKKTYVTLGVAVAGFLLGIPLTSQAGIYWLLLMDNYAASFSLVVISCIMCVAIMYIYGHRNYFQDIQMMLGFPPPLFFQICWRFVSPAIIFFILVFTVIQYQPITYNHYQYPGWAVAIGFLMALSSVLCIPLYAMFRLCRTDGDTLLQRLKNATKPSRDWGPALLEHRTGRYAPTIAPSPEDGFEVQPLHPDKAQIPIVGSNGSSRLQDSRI
Decide using EC50 alone. Strictly below 1000 nM: Yes. Equal to or above 1000 nM: No.

(Q) Record Cc1ccccc1C1(O)CCCCC1N1CCC2(CC1)C(=O)NCC2c1ccc(F)cc1 (stereo in doubt) : is its EC50 strictly below 1000 nM?
(A) Yes

(Q) Record CC(C)(C)c1ccc(C2(O)CCCCC2N2CCC3(CC2)C(=O)NCC3c2ccc(F)cc2)cc1 (single isomer, unassigned; diastereomer 2) : is its EC50 strictly below 1000 nM?
(A) No

(Q) Record COc1cccc(C2(O)CCCCC2N2CCC3(CC2)C(=O)NCC3c2ccc(F)cc2)c1 (single isomer, unassigned; diastereomer 2) : is its EC50 strictly below 1000 nM?
(A) No

(Q) Record Cc1cccc(C2(O)CCCCC2N2CCC3(CC2)C(=O)NCC3c2ccc(F)cc2)c1 (single isomer, unassigned; diastereomer 2) : is its EC50 strictly below 1000 nM?
(A) No

(Q) Record COc1cccc(C2(O)CCCCC2N2CCC3(CC2)C(=O)NCC3c2ccc(F)cc2)c1 (single isomer, unassigned; diastereomer 3) : is its EC50 strictly below 1000 nM?
(A) Yes

(Q) Record COc1ccc(C2(O)CCCCC2N2CCC3(CC2)C(=O)NCC3c2ccc(F)cc2)cc1 (single isomer, unassigned; diastereomer 3) : is its EC50 strictly below 1000 nM?
(A) No
